For each entry below, report its CLint scaled at 0.5 μM value.
- EXPERIMENT NOTES: Metabolic stability in human liver microsomes, unbound intrinsic clearance (Cl int/fu mic)
- Assay type: in vitro ADME
- EXPERIMENTAL SETUP: human, liver microsomes, pH 7.4, human liver microsomes 0.25 mg/mL, 0.5 μM compound, NADPH, read-out: Cl int, mic unb. (h) [l/h/kg] (unbound intrinsic clearance, human)
Structures can show the parent of a compound that is named as a salt.

State recorded CLint scaled at 0.5 μM for all listed molecules.
1. COc1nc(OCC2CCC(F)(F)CC2)c(F)cc1CNC(=O)[C@@H]1CCCN1 [Example 4]
2. COc1nc(OC2CCC(F)(F)CC2)c(F)cc1CNC(=O)[C@@H]1CCN1 [Example 37]
3. COc1nc(C2CCCCC2)c(F)cc1CNC(=O)[C@@H]1CCCN1 [Example 132]
4. COc1nc(O[C@H]2CC[C@H](F)CC2)c(F)cc1CNC(=O)[C@@H]1CCCN1C [Example 28]
5. COc1nc(OCC(F)(F)C(F)F)c(F)cc1CNC(=O)[C@@H]1CCCN1C [Example 91, Hydrochloride]
6. COc1nc(OC2CCC(C(F)(F)F)CC2)c(F)cc1CNC(=O)[C@@H]1C[C@H]2C[C@H]2N1 (some centres unmarked) [Example 82]

5 to 50 L/h/kg
< 5 L/h/kg
50 to 500 L/h/kg
< 5 L/h/kg
< 5 L/h/kg
5 to 50 L/h/kg

Need CLint scaled at 0.5 μM for each of these molecules.
1. COc1nc(O[C@H]2CC[C@@H](F)CC2)c(F)cc1CNC(=O)[C@@H]1CCCN1C [Example 29]
2. COc1nc(N2CCC(C3CCC(C(F)(F)F)CC3)CC2)c(F)cc1CNC(=O)[C@@H]1CCCN1 (some centres unmarked) [Example 180]

1: < 5 L/h/kg; 2: 50 to 500 L/h/kg

---

- TARGET SYSTEM: 5-HT2C receptor (Homo sapiens)
- Construct: host or cells: U2OS
- EXPERIMENT NOTES: Human 5-HT2C functional assay (beta-arrestin2 recruitment, U2OS_HTR2C_β-Arrestin cells)
- Format: cell-based
- EXPERIMENTAL SETUP: beta-arrestin2 recruitment, U2OS_HTR2C_β-Arrestin cells, 1.5 h incubation; read-out: EC50 5-HT2C (potency in functional assay)
- Method: The functional activity of compounds of formula I was assayed by incubation with U2OS_HTR2C_β-Arrestin cells (DiscoverX, 93-0289C3) to induce beta-arrestin2 recruitment to the 5-HT2C receptor. […] The enzyme complementation results in enzyme activity, which is measured following the termination of the agonist incubation using DiscoveRx's detection reagent, which contains a chemiluminescent substrate which produces a high intensity signal. […]
pEC50: −log10 of the molar value. Counter-ions that a name gives are not always drawn.
MEASUREMENT KIND: pEC50

// solved cases for pEC50 follow
COc1nc(OCC(C)(C(F)(F)F)C(F)(F)F)c(F)cc1CNC(=O)[C@@H]1CCCN1 [Example 109, Hydrochloride]: > 7.70
COc1nc(OCC2CCCCC2)c(F)cc1CNC(=O)[C@@H]1CCCN1: > 7.70
COc1nc(NCc2ccccc2)c(F)cc1CNC(=O)[C@@H]1CCCN1: 6.70 to 7.70
COc1nc(OC[C@@H]2CCC(F)(F)C2)c(F)cc1CNC(=O)[C@H]1CCCN1C: 6.70 to 7.70
COc1nc(C2CCCCC2)c(F)cc1CNC(=O)[C@@H]1CCCN1: > 7.70

For the 3 compounds below, give their pEC50 values.
1. COc1nc(NCc2ccc(F)cc2)c(F)cc1CNC(=O)[C@@H]1CCCN1
2. COc1nc(OC2CCC(F)(F)C2)c(F)cc1CNC(=O)[C@@H]1CCCN1 (some centres unmarked)
3. COc1nc(OC2CCC(F)(F)CC2)c(F)cc1CNC(=O)C(C)N1CCC1 (centres unmarked)

1. 6.70 to 7.70
2. > 7.70
3. 6.70 to 7.70

---

- TARGET SYSTEM: 5-HT2C receptor (Homo sapiens, UniProt P28335)
- Construct: host or cells: U2OS
- Sequence (P28335 33-458): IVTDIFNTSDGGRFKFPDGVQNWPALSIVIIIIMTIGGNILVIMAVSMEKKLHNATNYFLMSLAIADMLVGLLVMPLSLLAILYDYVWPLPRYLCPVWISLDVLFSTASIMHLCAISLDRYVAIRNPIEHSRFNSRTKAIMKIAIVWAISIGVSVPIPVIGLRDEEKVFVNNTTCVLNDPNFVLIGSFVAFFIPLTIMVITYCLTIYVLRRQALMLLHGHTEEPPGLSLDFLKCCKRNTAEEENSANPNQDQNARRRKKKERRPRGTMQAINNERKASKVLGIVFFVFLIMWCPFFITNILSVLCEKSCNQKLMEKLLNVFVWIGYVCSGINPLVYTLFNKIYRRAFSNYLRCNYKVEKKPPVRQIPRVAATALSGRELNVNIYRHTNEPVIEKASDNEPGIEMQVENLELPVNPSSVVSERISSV
- Sequence (P32121 whole entry partner): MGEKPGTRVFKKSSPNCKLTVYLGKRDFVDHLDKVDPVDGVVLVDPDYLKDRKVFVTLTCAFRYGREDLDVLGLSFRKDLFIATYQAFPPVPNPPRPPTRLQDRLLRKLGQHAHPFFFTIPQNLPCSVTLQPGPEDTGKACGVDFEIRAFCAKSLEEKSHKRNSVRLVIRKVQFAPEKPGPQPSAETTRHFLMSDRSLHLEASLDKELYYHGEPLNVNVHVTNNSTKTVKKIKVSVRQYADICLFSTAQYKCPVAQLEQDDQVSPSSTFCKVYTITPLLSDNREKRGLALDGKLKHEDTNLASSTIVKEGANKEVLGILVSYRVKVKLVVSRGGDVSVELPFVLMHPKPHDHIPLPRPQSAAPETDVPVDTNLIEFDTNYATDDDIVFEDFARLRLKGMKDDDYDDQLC
- EXPERIMENT NOTES: Human 5-HT2C functional assay (beta-arrestin2 recruitment, U2OS_HTR2C_β-Arrestin cells)
- Format: cell-based
- EXPERIMENTAL SETUP: relative efficacy vs response to 10 μM 5-HT or maximal 5-HT effect (100%)
Counter-ions that a name gives are not always drawn.
MEASUREMENT KIND: Emax

In the examples that follow, each entry is paired with its recorded Emax.
COc1nc(N2CCC(F)CC2)c(F)cc1CNC(=O)[C@@H]1CCCN1: 50 to 70%
COc1nc(OC2CCC(C(F)(F)F)CC2)c(F)cc1CNC(=O)[C@@H]1CCN1 (stereo partly shown): 50 to 70%
COc1nc(OCc2ccc(F)cc2)c(F)cc1CN(C)C(=O)[C@@H]1CCCN1 [Example 124, Hydrochloride]: 50 to 70%

Could I get Emax for every one of these entries?
1. COc1nc(N2CC3C(C2)C3(F)F)c(F)cc1CNC(=O)[C@@H]1CCCN1 (stereo partly shown)
2. COc1nc(OCC(F)(F)C(F)(F)C(F)(F)F)c(F)cc1CNC(=O)[C@@H]1CCCN1 [Example 110, Hydrochloride]

> 70%
> 70%

---

- TARGET SYSTEM: 5-HT2C receptor (Homo sapiens, UniProt P28335)
- EXPERIMENT NOTES: Human 5-HT2C functional assay (beta-arrestin2 recruitment, U2OS_HTR2C_β-Arrestin cells)
- EXPERIMENTAL SETUP: beta-arrestin2 recruitment, U2OS_HTR2C_β-Arrestin cells, 1.5 h incubation; read-out: EC50 5-HT2C (potency in functional assay)
pEC50: −log10 of the molar value. Where a name gives a salt, the structure may show the parent alone.
MEASUREMENT KIND: pEC50

COc1nc(OC2CCCCC2C(F)(F)F)c(F)cc1CNC(=O)[C@@H]1CCCN1 (stereo partly shown) [Example 57]: > 7.70
COc1nc(OCC2CCC(C(F)(F)F)CC2)c(F)cc1CNC(=O)[C@@H]1CCCN1 (stereo partly shown) [Example 14]: > 7.70
COc1nc(OC2CC(C(F)(F)F)C2)c(F)cc1CNC(=O)[C@@H]1CCCN1 (stereo partly shown) [Example 105, Hydrochloride]: > 7.70

Query for 5-HT2C receptor (Homo sapiens, UniProt P28335): what pEC50 does the record show for COc1nc(OC[C@H]2CCC(F)(F)C2)c(F)cc1CNC(=O)[C@@H]1CCCN1C [Example 17] ?
6.70 to 7.70

---

Hi there, I'd appreciate the recorded CLint scaled at 0.5 μM for every entry that follows.
- EXPERIMENT NOTES: Metabolic stability in human liver microsomes, unbound intrinsic clearance (Cl int/fu mic)
- Type: in vitro ADME
- EXPERIMENTAL SETUP: human, liver microsomes, pH 7.4, human liver microsomes 0.25 mg/mL, 0.5 μM compound, NADPH, read-out: Cl int, mic unb. (h) [l/h/kg] (unbound intrinsic clearance, human)
- Protocol: Samples of the tested compounds (0.5 μM) were preincubated together with human liver microsomes (0.25 mg of microsomal protein/mL) in 0.05 M potassium phosphate buffer of pH 7.4 in microtiter plates at 37° C. for 5 minutes. The reaction was started by adding NADPH (1.0 mM). […] The samples were frozen until analyzed. The remaining concentration of undegraded test substance was determined by liquid chromatography-tandem mass spectrometry (LC-MS/MS). […]
Counter-ions that a name gives are not always drawn.

Worked cases, answers included:
COc1nc(C2CC2)c(F)cc1CNC(=O)[C@@H]1CCCN1 [Example 127]: 5 to 50 L/h/kg
COc1nc(OCC2CC3C(C2)C3(F)F)c(F)cc1CNC(=O)[C@@H]1CCCN1 (some centres unmarked) [Example 56]: 5 to 50 L/h/kg
Cc1nc(OC2CCC(C(F)(F)F)CC2)ccc1CNC(=O)C1CCCN1 (centres unmarked) [Example 65]: < 5 L/h/kg
COc1nc(OCC2CC(F)(F)C2)c(F)cc1CN(C)C(=O)[C@@H]1CCCN1C [Example 106, Hydrochloride]: < 5 L/h/kg
COc1nc(CC2CCOCC2)c(F)cc1CNC(=O)[C@@H]1CCCN1 [Example 189]: < 5 L/h/kg

Quick batch: CLint scaled at 0.5 μM for everything below.
1. COc1nc(N2CCC(F)(F)C2)c(F)cc1CNC(=O)[C@@H]1CCCN1 [Example 164]
2. COc1nc(O[C@H]2CCC[C@H](C(F)(F)F)C2)c(F)cc1CNC(=O)[C@@H]1CCCN1 (relative stereo) [Example 89, Hydrochloride]
3. COc1nc(NCc2ccc(F)cc2)c(F)cc1CNC(=O)[C@@H]1CCCN1 [Example 177]

< 5 L/h/kg
5 to 50 L/h/kg
< 5 L/h/kg

Data credit: patent US20190062305A1
